- system_name: furin, P09958;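 note: purified furin at 1:10 enzyme:substrate in 50 mM HEPES pH 7.5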
- Sequence (P09958 whole entry): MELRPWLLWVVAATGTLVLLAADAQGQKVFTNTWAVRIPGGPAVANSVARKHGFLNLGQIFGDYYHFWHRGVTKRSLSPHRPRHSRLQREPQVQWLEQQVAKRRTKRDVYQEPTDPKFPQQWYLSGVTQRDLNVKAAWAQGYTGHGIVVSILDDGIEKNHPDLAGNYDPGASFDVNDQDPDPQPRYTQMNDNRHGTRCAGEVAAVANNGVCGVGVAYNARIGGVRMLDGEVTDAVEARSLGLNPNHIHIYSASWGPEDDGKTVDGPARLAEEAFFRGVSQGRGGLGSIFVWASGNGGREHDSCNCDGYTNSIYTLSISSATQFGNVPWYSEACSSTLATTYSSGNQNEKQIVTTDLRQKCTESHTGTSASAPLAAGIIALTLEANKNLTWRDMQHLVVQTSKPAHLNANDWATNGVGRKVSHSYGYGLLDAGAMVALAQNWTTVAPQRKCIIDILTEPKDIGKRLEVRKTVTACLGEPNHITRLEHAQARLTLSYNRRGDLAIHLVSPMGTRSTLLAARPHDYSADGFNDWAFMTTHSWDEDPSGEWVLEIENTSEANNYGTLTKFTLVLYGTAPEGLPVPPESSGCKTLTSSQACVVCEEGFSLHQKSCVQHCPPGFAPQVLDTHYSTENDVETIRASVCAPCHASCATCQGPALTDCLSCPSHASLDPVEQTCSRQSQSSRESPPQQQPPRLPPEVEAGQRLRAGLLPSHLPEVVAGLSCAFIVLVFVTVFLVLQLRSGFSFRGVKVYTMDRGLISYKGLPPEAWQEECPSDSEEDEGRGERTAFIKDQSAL
- method_notes: furin cleavage Z-score vs untreated control; higher = more cleavage, active = 3.5 or more, inactive = 1 or less, 8 variable residues between constant flanks
- condition_description: 30 min
The list shows a part of the results. How many sequences the whole screen found active is unknown.
Outcomes: 1 for active, -1 for inactive

1. CAHNNRVGRQAGNASASA [FS-596] = 1
2. CAYNNRPWRPAGNASASA [FS-392] = -1
3. CAARVAIKSLAGNASASA [HC1495] = -1
4. CASTPCSGHLAGNASASA [HC2536] = -1
5. CASTTSRSACAGNASASA [HC1390] = -1
6. CATDVVCCSMAGNASASA [HC2118] = -1
7. CAEVVTSKWVAGNASASA [HC2214] = -1
